// cross-study collection: IC50 for Angiotensin-converting enzyme (Oryctolagus cuniculus)
measure_name: IC50 (µM)

molecule	target_system	unit_abbrev	IC50
C[C@H](NC(=O)[C@@H](CS)Cc1ccccc1)C(=O)N1C[C@H](C2CCCCC2)C[C@H]1C(=O)O	Angiotensin-converting enzyme (Oryctolagus cuniculus)	µM	0.018

(P) O=C(N[C@@H](CSCc1ccccc1)C(=O)O)[C@@H](CS)Cc1ccccc1
(Q) CCCCc1nc(Cl)c(/C=C/C(=O)c2ccc(Cl)s2)n1C
(R) CC(=O)SCC(C)C(=O)N(CC(=O)O)CC1CCCO1 (configuration not stated)
(S) CC(C(=O)O)N1CCCCCC(CS)C1=O (configuration not stated)
(T) CCC[C@H](NCC(=O)N1C2CCCCC2C[C@H]1C(=O)O)C(=O)O (some centres not stated)
## Input Please rank these molecules by IC50 in descending order. # list labels per requested ordering
## Output Q, R, P, S, T
(Q: 3.6 µM, R: 1.9 µM, P: 0.115 µM, S: 0.053 µM, T: 0.0019 µM)

(P) CC(C)CCCP(=O)(O)O[C@@H](CCCCN)C(=O)N1CCC[C@H]1C(=O)O
(Q) CC(C)[C@H](S)C(=O)NC1(C(=O)N[C@@H](Cc2ccc(O)cc2)C(=O)O)CC1
## Input Which gives the smaller IC50 number: P or Q ? Label of pick, please.
## Output Q

(1) C[C@H](NC(=O)[C@@H](CS)Cc1ccccc1)C(=O)N1CCC[C@H]1C(=O)O
(2) CC(=O)SCC(C)C(=O)N(CC(=O)O)C1CCC2CC1C2(C)C (configuration not stated)
## Input Which gives the smaller IC50 number: 1 or 2 ? Label of pick, please.
## Output 1

###

// cross-study collection: IC50 for Angiotensin-converting enzyme (Oryctolagus cuniculus, UniProt P12822)
measure_name: IC50 (µM)

# annotated cases, reported IC50 shown
compound	endpoint_value
CCN(CC(=O)O)C(=O)C(C)CS (centres undefined)	0.075
CC(CSC(=O)CC(C)(C)C)C(=O)N(CC(=O)O)C1CCCC1 (centres undefined)	15
C[C@H](NC(=O)[C@@H](S)Cc1ccccc1)C(=O)N1CCC[C@H]1C(=O)O	0.03
O=CN(O)C[C@@H](Cc1ccccc1)C(=O)N[C@H]1Cc2ccccc2[C@H]2CCC[C@@H](C(=O)O)N2C1=O	0.0034
CSc1cccc(N(CC(=O)O)C(=O)C(C)CSC(C)=O)c1 (centres undefined)	0.075
CN(C)CCOC(=O)[C@@H]1Cc2ccccc2N1C(=O)CC[C@@H](NC(=O)OCc1ccccc1)C(=O)O	0.007

(P) CN[C@H](C(=O)N[C@@H](Cc1ccccc1)C(=O)N[C@@H](Cc1ccc(O)cc1)P(=O)(O)O)C(C)C
(Q) CC(C)[C@H](S)C(=O)NC1(C(=O)N[C@@H](Cc2ccc(O)cc2)C(=O)O)CC2CCC1C2 (some centres undefined)
## Input Select one: P or Q . Criterion: greater recorded IC50. Label of pick, please.
## Output P
(P: 0.37 µM, Q: 0.065 µM)

###

// cross-study collection: pIC50 for Angiotensin-converting enzyme (Oryctolagus cuniculus)
pIC50: −log10 of the molar value.
measure_name: pIC50

# annotated cases, reported pIC50 shown
compound	measure_name	endpoint_value
CC(CS)C(=O)N(CC(=O)O)C1CC1 (stereo not drawn)	pIC50	7.52
COc1ccc(C2CC(c3cc(OC)c(OC)c(OC)c3)=NN2C)cc1 (stereo not drawn)	pIC50	3.36
NCCCC[C@H](OP(=O)(O)CCc1ccccc1)C(=O)N1CCC[C@H]1C(=O)O	pIC50	6.72

(P) CC(C)C[C@H](NC(=O)[C@@H](S)Cc1ccccc1)C(=O)O
(Q) CC1(C)CCC[C@H](NC(=O)[C@H](Cc2ccccc2)CN(O)C=O)C(=O)N1CC(=O)O
## Input Which gives the smaller pIC50 number: P or Q ? Label of pick, please.
## Output P
(P: 5.80, Q: 8.27)
